Data origin, for the record: PubChem BioAssay AID588405

assay: inhibition of PEG-3 promoter activity – cell-based, HeLa, luciferase luminescence, primary screen (AID 588405); conditions: HeLa PEG-Prom luciferase reporter, overnight, at 20 µM, active compounds read high
Among all 360,000 compounds or so, about 6,200 (1.7%) were called active. The entries come from a sample that favours actives as a whole.
inhibition below 30% gives not met; inhibition at or above it gives met.

query: Is it the case that Cc1c(C(=O)NCc2ccc(C#N)cc2)sc(=O)n1Cc1ccc(C(=O)N(C)C)cc1 has inhibition reaching or exceeding 30%?
result: not met

query: Is it the case that CCOC(=O)/C(=C\c1ccc([N+](=O)[O-])cc1)C(=O)c1cc(C(C)=O)c(Nc2ccccc2)s1 has inhibition reaching or exceeding 30%?
result: met

query: Is it the case that CC1(c2cccc([N+](=O)[O-])c2)CC(C)(C)N(C(=O)c2ccccc2)c2ccccc21 (stereo not given) has inhibition reaching or exceeding 30%?
result: met

query: Is it the case that Cc1nnc(SCC(=O)N2c3ccccc3C(C)(c3ccc(Cl)cc3)CC2(C)C)s1 (stereo not given) has inhibition reaching or exceeding 30%?
result: met

query: Is it the case that O=[N+]([O-])c1ccc(CN2CC(N3CCC(c4ccccc4)CC3)CS2(=O)=O)cc1 (stereo not given) has inhibition reaching or exceeding 30%?
result: not met

---

Field: inhibition. Provide a value for each of the molecules that follow.
assay: inhibition of PEG-3 promoter activity – cell-based, HeLa, luciferase luminescence, primary screen (AID 588405); details: HeLa PEG-Prom luciferase reporter, overnight, at 20 µM, active compounds read high
The whole screen tested about 360,000 compounds, of which about 6,200 (1.7%) were called active. Shown is part of a subset that was picked to be rich in actives.
The reply should contain only the number, in %.

query: # get_value(readout='inhibition', item= CN(C)CCCN(C(=O)c1ccc(S(=O)(=O)N2CCCCCC2)cc1)c1nc2ccc(Br)cc2s1 )
result: 57.8

query: # get_value(readout='inhibition', item= CN(C)CCCNC(=O)/C=C/c1ccc(OCc2c(F)cccc2Cl)cc1 )
result: 70.2

query: # get_value(readout='inhibition', item= CCN(CC(=O)Nc1c(F)cccc1F)C(=O)c1ccc(S(=O)(=O)N2CCCCC2)cc1 )
result: 3.57

query: # get_value(readout='inhibition', item= CCN(C(=O)COc1ccc(C(=O)c2ccccc2)cc1)c1ccccc1 )
result: 2.39

query: # get_value(readout='inhibition', item= CN1CCN(C(=O)c2ccc(-c3cc4nc(NCc5cccnc5)n(C)c(=O)c4s3)cc2)CC1 )
result: -4.53

---

Field: inhibition. Provide a value for each of the molecules that follow.
assay: inhibition of PEG-3 promoter activity – cell-based, HeLa, luciferase luminescence, primary screen (AID 588405); conditions: HeLa PEG-Prom luciferase reporter, overnight, at 20 µM, active compounds read high
The whole screen tested about 360,000 compounds, of which about 6,200 (1.7%) were called active. Only a selection was taken, and actives are over-represented in it overall.
The reply should contain only the number, in %.

query: # get_value(readout='inhibition', item= CCNC(=O)C1(C)CCCN(C(=O)c2ccc3ccccc3n2)C1 (stereo not given) )
result: -7.45

query: # get_value(readout='inhibition', item= COc1ccc(NC(=O)c2cn(-c3ccccc3)nc2SC)cc1 )
result: -78.1

query: # get_value(readout='inhibition', item= Cc1ccc(-c2cnc(C(O)c3cccc(C)c3C)[nH]2)cc1 (stereo not given) )
result: -14.4

query: # get_value(readout='inhibition', item= CCOC(=O)N1CCN(C(=O)c2n[nH]c(=O)c3ccccc23)CC1 )
result: 6.99

query: # get_value(readout='inhibition', item= CCCCC[C@@H]1C=C(C(=O)OCC)[C@H](c2ccccc2)N1S(=O)(=O)c1ccc(C)cc1 )
result: 12.8

query: # get_value(readout='inhibition', item= COc1ccc(NC(=O)C2Cc3c(-c4ccc(Cl)cc4)ccnc3O2)cc1 (stereo not given) )
result: 22.6

query: # get_value(readout='inhibition', item= CC1(Cc2cccc(C#N)c2)C(=O)Nc2ccc(-c3cccc(C(F)(F)F)c3)cc21 (stereo not given) )
result: 37

query: # get_value(readout='inhibition', item= CC(C)C1CC2=C(C(=O)OC(C)(C)O2)C(c2ccc(F)cc2)O1 (stereo not given) )
result: 4.49

query: # get_value(readout='inhibition', item= O=C(c1[nH]ncc1-c1ccc(Cl)cc1)C1CO1 (stereo not given) )
result: 52

query: # get_value(readout='inhibition', item= O=C(Nc1ccc(F)cc1)Nc1nnc([C@H]2C[C@H](O)[C@@H](CO)O2)s1 )
result: -5.07
